The measured values listed here are drawn from the supplement of paper PMC10724198.

System: Saccharomyces cerevisiae
experimentNotes: protein stability index of tFT-peptide fusion (C-terminal peptide) (PSI (0-1 scale)); higher = more stable (slower turnover)
studyConditions: genetic background: wild type; temperature: 30 C
testReadout: protein stability index
One number for each entry.

HSLRPPPRHQQK ... 0.689
HVDSLPRPLLPS ... 0.716
FVSFFRWLLVSI ... 0.152

Provide protein stability index values for the following items, in order.
1. AVQSEFGVGFSM
2. RLIHRLLGLFPS
3. GEAREEEKKGRW
4. TRLKKTEKTKER
5. ACVGGGGMKVLG
6. QKWKIIRACVGC

Data returned:
0.736
0.69
0.631
0.739
0.713
0.606

Field: protein stability index. Fill in for each record below.
1. AGLVPSSLQSVS
2. LLFSVLLLGVGF
3. RPFLLWRVVTPL

Data returned:
1. 0.695
2. 0.407
3. 0.611

Provide the reported protein stability index of each entry below, same order.
1. VPFQEGHVKRFL
2. KVGPVLLLCRRS
3. GCWVNFLLTHFF

Data returned:
[0.665, 0.445, 0.527]

Parameter requested: protein stability index. Apply to each item below.
1. PDVPLASPSPFR
2. AECMLGLFSGVL
3. RLILLPLFLSDS
4. RRPFPSSVVFPH

Data returned:
1. 0.625
2. 0.73
3. 0.729
4. 0.702

----------
System: Saccharomyces cerevisiae
experimentNotes: protein stability index of tFT-peptide fusion (C-terminal peptide) (PSI (0-1 scale)); higher = more stable (slower turnover)
studyConditions: genetic background: wild type; temperature: 30 C
testReadout: protein stability index
Give bare numbers.

NPWYCVWYGAIT ... 0.626
TTYYTKPPRPKR ... 0.69
NNMSFLPMLDYT ... 0.65
PYPVTLSRPTPT ... 0.611
SPAPPPGVPPSR ... 0.687
DGARECRDDVCS ... 0.675
VGGRAAIVRGGW ... 0.685
IKKKTNYMNEKI ... 0.661

List reported protein stability index for each of these sequences:
1. MLCVFVFIWYFV
2. TNYKIKDDRLHR

Data returned:
1: 0.235; 2: 0.699

----------
Test system: Saccharomyces cerevisiae
experimentNotes: protein stability index of tFT-peptide fusion (C-terminal peptide) (PSI (0-1 scale)); higher = more stable (slower turnover)
studyConditions: genetic background: das1 deletion; temperature: 30 C
Could you label it 1.0 if measured protein stability index is 0.7 or higher, and 0.0 otherwise?

Look over these answered cases.
IYKCEDERIDYF [KOG1 C-terminal 12 aa] ... 0.0
GNNGNNNNTTNL [PET123 C-terminal 12 aa] ... 0.0

Data request: Would you say SSSLSPSLSSWP [YJL020W-A C-terminal 12 aa] shows protein stability index at minimum 0.7?
Data returned: 1.0

Data request: Next sequence up: RRAAIHPYFQES [CDC28 C-terminal 12 aa]
Data returned: 1.0

Data request: Input FLLVLFFICIIL [YOL014W C-terminal 12 aa]
Data returned: 0.0

----------
Tested on: Saccharomyces cerevisiae
experimentNotes: protein stability index of tFT-peptide fusion (C-terminal peptide) (PSI (0-1 scale)); higher = more stable (slower turnover)
studyConditions: genetic background: das1 deletion; temperature: 37 C
Given measured protein stability index, output MET if it is greater than or equal to 0.5 and NOT MET if not.

SEVMVGLRLTLN ... MET

Data request: Given the entry `WTRAHWFFQFFV` , answer whether its protein stability index meets or surpasses 0.5.
Data returned: MET

Data request: How about this sequence: `VYCTFLFAYTLP`
Data returned: MET

Data request: Note, next up: `FAIRMHCLIFRC`
Data returned: NOT MET

Data request: Try the sequence `SFYAGLVVGGVG`
Data returned: MET

Data request: Likewise for `CEVLVVVMCLWG` ?
Data returned: NOT MET

Data request: Let us now turn to `ISTRLALCACVC`
Data returned: NOT MET

Data request: Can you check `GYRRCCHFLFTL` next?
Data returned: MET

Data request: Then what about the sequence `KVGPVLLLCRRS` ?
Data returned: MET

Data request: Field entry: `DFLSGRCIFFYV`
Data returned: MET

Data request: Then `PSRLSFALLFHL` ?
Data returned: MET

Data request: Now this one: `RLIQPLPVQFLN`
Data returned: MET

Data request: Entry to check: `GGRLGRAGGGGR`
Data returned: MET

Data request: Input `GSLVLSCLMSRA`
Data returned: MET

Data request: What do you have for `VLWVYLFLFVIF` ?
Data returned: NOT MET

Data request: Same again, this time with `FFLDVMFLLFFF`
Data returned: MET

Data request: Try this sequence next: `RVLSLLGCFVVF`
Data returned: MET

Data request: Next record, please: `VFLFSWYIFSVF`
Data returned: NOT MET

----------
System: Saccharomyces cerevisiae
experimentNotes: protein stability index of tFT-peptide fusion (C-terminal peptide) (PSI (0-1 scale)); higher = more stable (slower turnover)
studyConditions: genetic background: das1 deletion; temperature: 37 C
Binary call on protein stability index: Met from 0.4 upward, Not met beneath that.

VIWVLGALASWG ... Met
FPFVYRSVLLFF ... Met
SYCFCCCVLFWG ... Met
GCLFASWPLAVC ... Not met
VGFIVCFFFSFG ... Met
ALHGTVRNWQRQ ... Met

Data request: For this sequence, is measured protein stability index 0.4 or higher? `GDSVRVIIFCLN`
Data returned: Met

Data request: One more sequence: `SYVRLDLFFFLG`
Data returned: Met

Data request: Proceed to `SVAGFFLLLLLS`
Data returned: Met

Data request: Same read-out for `VRNYWKYVVIFP` ?
Data returned: Met

Data request: Another sequence to look at: `SVLRCPVILLAY`
Data returned: Not met

Data request: Note, next up: `FPFFFLSILSAV`
Data returned: Not met

Data request: # iterate: `SVECLCLFVACR`
Data returned: Not met

Data request: // repeat for `SRICRTIIQLKQ` and report
Data returned: Met

Data request: Can you check `PLRRPSWVVLSS` next?
Data returned: Met

Data request: Also, `VLSLYWLIISRL` please.
Data returned: Met

Data request: Do the same for `GLDLLTKFSKEC` please
Data returned: Met

----------
Tested on: Saccharomyces cerevisiae
experimentNotes: protein stability index of tFT-peptide fusion (C-terminal peptide) (PSI (0-1 scale)); higher = more stable (slower turnover)
studyConditions: genetic background: wild type; temperature: 30 C
Classify as follows. Reported protein stability index greater than or equal to 0.7: met. Reported protein stability index below: not met.

Example results:
IIKKKKNKARDI ... met
CEVLVVVMCLWG ... not met
SVFVVVVLVFWY ... not met
PFPPPPPPPRSP ... met
VRGLGRLSRAEV ... met

Data request: Evaluate `DVYLVGLGVWSS` : protein stability index at minimum 0.7?
Data returned: not met

Data request: # iterate: `IFRSLDFVFYFT`
Data returned: not met

Data request: Try the sequence `AGPGMARERYFY`
Data returned: not met

Data request: Also, `GRSGGVGVLWGG` please.
Data returned: met

Data request: Query `SLPHSFIYYPLP` next
Data returned: met

Data request: What do you have for `GVKSSRRSLHGS` ?
Data returned: met

Data request: And what about the sequence `GPTRAIIFERRY` ?
Data returned: met

Data request: Another sequence to check: `SVECLCLFVACR`
Data returned: not met

Data request: Note, next up: `LSSCLFDPIFLF`
Data returned: met

Data request: Item: `VFPARTALFFPQ`
Data returned: met

Data request: Also `PLSLPPPPPSLP` ?
Data returned: met

----------
Test system: Saccharomyces cerevisiae
experimentNotes: protein stability index of tFT-peptide fusion (C-terminal peptide) (PSI (0-1 scale)); higher = more stable (slower turnover)
studyConditions: genetic background: cdc53-1; temperature: 37 C
So I've got a bunch of sequences here, and I need their protein stability index values.
Give bare numbers.

Known results for sequences:
ISTRLALCACVC ... 0.18
ETCFSFVCSVQC ... 0.325
VRNYWKYVVIFP ... 0.711
GFVVYLLLSYLF ... 0.413
SVAGFFLLLLLS ... 0.397

Below are 8 sequences. Give each one its protein stability index.
1. AFKRVFWALWWM
2. GGGGLRVVVWLV
3. RCTFSFSFPFVL
4. CFFPFLCFVVGA
5. LALTRAAITHFF
6. LCSVVIFCLVWG
7. TVWRRIRHACAH
8. EGLDVRILIQVI

Data returned:
[0.39, 0.647, 0.754, 0.492, 0.749, 0.263, 0.683, 0.0735]

// for each sequence in input: emit protein stability index
1. SYVFCYICGVQS
2. IVRDTECGIFYR
3. ICIFWLITGLWL
4. RHAHPLTAQLPL

Data returned:
1: 0.592; 2: 0.75; 3: 0.459; 4: 0.707

Required: protein stability index, one value per sequence below.
1. PFFVFSFLFLLH
2. SYCFCCCVLFWG

Data returned:
1: 0.183; 2: 0.517
